- protocol notes: NCI Yeast Anticancer Drug Screen. Data for the mlh1 rad18 strain (AID 175)
- measurement parameters: S. cerevisiae mlh1 rad18 strain growth inhibition; at 50.0 µM; stronger effect = higher value
The panel holds about 79,000 compounds, 15% with a hit somewhere; the sample as a whole holds those more often.
measured quantity: growth inhibition (%)
Record the value in %, omitting the unit from your answer.

| compound | reported |
| --- | --- |
| Nc1nc(N)c(N=Nc2ccc(C(=O)O)c(O)c2)c(N)n1 | 13 |
| Cc1cccc(C)c1NC(=O)C(=O)/C(=C(\N)c1ccccc1)c1ccccc1 | -9.15 |
| CCc1nnnn1-c1ccc(Br)cc1 | 18.5 |
| CC(C)(O)CC(=O)/C=C\c1ccc2c(c1)OCO2 | 4.35 |
| N#Cc1c(NC(=S)NC(=O)c2ccccc2)nc2c(c1-c1ccccc1)CCCC2 | 21.6 |

// lookup growth inhibition for CCCC(/C=N/Nc1ccc([N+](=O)[O-])cc1[N+](=O)[O-])=C\c1ccccc1 -50

Here is the next compound: O=C1CCC23CC(C=CC=C12)n1c(=O)n(-c2ccccc2)c(=O)n13 (stereo not drawn) 16.7

What about C/C=C/C=N/SC(c1ccccc1)(c1ccccc1)c1ccccc1 ? 13.6

Also check Nc1ncc(Cl)c(NCC2(CO)CC(CCc3ccccc3)C2)n1 (stereo not drawn) 2.35

For COCc1cc(=O)c(OC)cn1CCO then? -5.2

* * *

- protocol notes: NCI Yeast Anticancer Drug Screen. Data for the bub3 strain (AID 167)
- measurement parameters: S. cerevisiae bub3 mutant strain, at 50.0 µM, stronger effect = higher value
Compounds without any hit were thinned out: in the full panel of roughly 79,000, 15% have a hit.
Quick list: growth inhibition per entry.
Please give a number only; it is taken to be in %.

| molecule | measured quantity | unit spec | reported |
| --- | --- | --- | --- |
| C=C(C)[C@@H]1CC[C@@H](C)C[C@H]1O | growth inhibition | % | 9.95 |
| O=C(NO)c1ccc(O)c(O)c1 | growth inhibition | % | -8.45 |
| C=CC(OC(=O)/C=C/C)OC(=O)/C=C/C | growth inhibition | % | 20.1 |
| COc1ccccc1NC(=O)CC(=O)n1nc(-c2ccccc2)c(N=Nc2ccccc2[N+](=O)[O-])c1-c1ccccc1 | growth inhibition | % | 25.3 |
| NCCCCC(N)C(=O)O (configuration not stated) | growth inhibition | % | -2.1 |

Let us examine a further case.
Please look up its growth inhibition: Nc1nc(-c2cccc([N+](=O)[O-])c2)c(N=Nc2ccc(Br)cc2)s1 -3.25

* * *

This listing pairs compounds with measured growth inhibition.
- protocol notes: NCI Yeast Anticancer Drug Screen. Data for the bub3 strain (AID 167)
- measurement parameters: S. cerevisiae bub3 mutant strain, at 50.0 µM, stronger effect = higher value
- Method: Growth inhibition of yeast strains with defined genetic alterations is measured as a screen for potential anti-cancer activity. Selected strains with alterations in DNA damage repair or cell cycle control were exposed to compounds and growth inhibition was measured relative to vehicle treated controls. The strain used in this assay is bub3
Compounds without any hit were thinned out: in the full panel of roughly 79,000, 15% have a hit.
Give the value in % but do not write % after it.

Example entries and their recorded answers appear below.
| smiles | growth inhibition (%) |
| --- | --- |
| CC(=O)c1c(-c2nc(=S)[nH]c(C)c2C(C)=O)nc(=S)[nH]c1C | -1.45 |
| Cc1cc2c(=O)[nH]cnc2[nH]1 | 13.8 |
| Cc1ccc(-c2c(C#N)c(-c3ccccc3)n(NS(=O)(=O)c3ccccc3)c(=O)c2C#N)cc1 | 49.6 |
| O=C(/C=C\c1ccc([N+](=O)[O-])cc1)c1ccccc1 | -3.6 |
| CCOc1ccc(-c2nc(-c3oc4ccccc4c(=O)c3OC(C)=O)cs2)cc1 | -5.9 |

The record that follows has no growth inhibition shown yet.
Item O=C1/C(=C2\CCc3ccccc32)Cc2ccccc21 has what recorded growth inhibition? 34.6
